System: RPMI-8226 leukemia
Assay: NCI-60 one-dose screen, 48 h
Details: 10 µM unless noted
The panel holds about 83,000 compounds, 20% with a hit somewhere; the sample as a whole holds those more often. Activity calls are given as the source filed them. Rule for the calls: active = growth percent below 10; inactive = the rest.
Select the matching outcome among t for active, f for inactive

Ask: Recorded test outcome, item COc1ccc(-c2nc(SCC(C)C)nc(Nc3ccccc3)c2C#N)cc1
Reply: f

Next:
Ask: Recorded test outcome, item COc1ccc(-c2nc(N)n(C(=S)Nc3ccccc3)n2)cc1
Reply: f

Ask: Recorded test outcome, item COc1ccc(Cn2cc3c(c2-c2ccc(O)cc2)CCc2cnoc2-3)cc1
Reply: f

Ask: Recorded test outcome, item Oc1ccc(Br)cc1/C=N/NC(=S)NC12CC3CC(CC(C3)C1)C2
Reply: t

Ask: Recorded test outcome, item O=C(Nc1cccc(Cn2c(=O)[nH]c3ccc(Oc4ncccn4)cc3c2=O)c1)c1ccc(Cl)cc1
Reply: f

Ask: Recorded test outcome, item CCCCCCCCCCC(C[N+](C)(C)C/C=C/c1ccccc1)C(O)c1ccccc1 (centres undefined)
Reply: t

Ask: Recorded test outcome, item c1ccc(C(=NNc2nc3ccccc3o2)c2ccccn2)nc1
Reply: t

Ask: Recorded test outcome, item COC(=O)c1ccc2[nH]c(O)c(C(=Nc3ccc(N(C)C(=O)CN4CCN(C)CC4)cc3)c3ccc(OC)cc3)c2c1
Reply: t

Ask: Recorded test outcome, item CCCCCCNC(=O)Oc1ccc(/C(=C(/C)Cc2ccc(OC)cc2)c2ccc(OCCN3CCCCC3)cc2)cc1
Reply: f

Ask: Recorded test outcome, item COc1ccc(-c2nc(Nc3nc4ccccc4[nH]3)nc(N)c2C#N)cc1
Reply: f

Ask: Recorded test outcome, item COc1ccc(-n2nnnc2-c2cn[nH]c2C(F)(F)F)cc1
Reply: f

Ask: Recorded test outcome, item N#Cc1c(N)nc(Nc2nc3ccccc3[nH]2)nc1-c1ccc(Cl)cc1
Reply: f

Ask: Recorded test outcome, item COc1cc2ncnc(-n3ncc4cc(NC(=O)Nc5ccc(Cl)c(Cl)c5)ccc43)c2cc1OC
Reply: t

Ask: Recorded test outcome, item O=C1Nc2c(c(=O)n(-c3ccccc3)c3ccccc23)C(c2ccc(Cl)cc2)N1 (centres undefined)
Reply: f

Ask: Recorded test outcome, item Nc1nc2c(c3cnccc13)C(c1cccc(Cl)c1)Cc1cnccc1-2 (centres undefined)
Reply: t

Ask: Recorded test outcome, item CCC(C)C1NC(=O)C(CCCCN)NC(=O)C(CCCCN)NC(=O)C(CC(C)C)NC(=O)C(CCCCN)NC(=O)C(C(C)CC)NC(=O)C(C(C)C)NC(=O)C(C(C)CC)NC(=O)C(CCCCN)NC(=O)C(CCCCN)NC(=O)C(C)NC(=O)C(CCCCN)NC(=O)C(CC(C)C)NC1=O (centres undefined)
Reply: t

Ask: Recorded test outcome, item Cc1c(Cc2ccccc2)c(=O)oc2c(C)c(OCC(=O)n3nc(C#N)cc3N)ccc12
Reply: f

Ask: Recorded test outcome, item CC(C)(C)c1ccc([I+]c2ccc(C(C)(C)C)cc2)cc1
Reply: t

Ask: Recorded test outcome, item CCOc1ccc(Br)cc1/C=C(\C#N)c1ccc([N+](=O)[O-])cc1
Reply: f

====

Tested on: NCI-H23 lung
Assay: NCI-60 one-dose screen, 48 h (100 = growth as untreated, 0 = no growth, -100 = all killed)
Conditions: 10 µM unless noted
Compounds without any hit were thinned out: in the full panel of roughly 83,000, 20% have a hit.
growth below 90% gives Not fulfilled; growth at or above it gives Fulfilled.

Example entries begin here.
Ask: Does the molecule Oc1ccc(N=Nc2ccc(N=Nc3ccccc3)cc2)cc1 have recorded growth that is 90% or more?
Reply: Not fulfilled

Ask: Does the molecule COC1=CC(c2ccc[nH]2)=N/C1=C\c1[nH]c(C)c(C(=O)CCCCC(=O)NC(C)(C)C)c1C have recorded growth that is 90% or more?
Reply: Not fulfilled

Below: the item to evaluate.
Ask: Does the molecule C=CC1CN2CCC1CC2C(O)c1ccnc2ccc(OC)cc12 (stereo not given) have recorded growth that is 90% or more?
Reply: Fulfilled
